Provenance of the data: PubChem BioAssay AID453

- experimental system: Cathepsin B (Homo sapiens)
- measurement notes: human cathepsin B inhibitors, primary screen, biochemical, fluorogenic substrate (AID 453);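 note: 0% = enzyme with no compound and 100% = no enzyme blank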
- experimental parameters: purified cathepsin B, fluorescence, active compounds read high,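 tested at 10 µM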
About 75 (0.1%) of roughly 63,000 compounds were called active. The full list was thinned out, with actives kept by preference.
measurement name: inhibition (%)

C/C(=C(\C#N)C(=O)NCCCN1CCOCC1)N(C)C
2.66
CCCOc1ccc(C2C(C(=O)c3ccc(C)o3)=C(O)C(=O)N2CCCn2ccnc2)cc1 (configuration not stated)
2.38
CC(Sc1nncs1)C(=O)NCc1ccc2c(c1)OCO2 (configuration not stated)
-5.21
Cn1c(=O)c2c(nc(Br)n2CCSc2nc3ccccc3o2)n(C)c1=O
-0.32
Cc1ccc(CC2CC(=O)N(c3ccc4c(c3)OCCO4)C2=O)cc1 (configuration not stated)
3.98
Nc1nonc1-c1noc(-c2ccc(Br)o2)n1
25
COc1ccc2c(c1)C(C)=CC(C)(C)N2C(=O)CNCc1ccc2c(c1)OCO2
0.73
Cc1onc(-c2ccccc2)c1C(=O)N1CCOCC1
6.53
COCCN(C(=O)CCC(=O)Nc1ccccn1)C(C(=O)NCCC(C)C)c1ccc(OC)cc1 (configuration not stated)
-1.72
CCCCCC(=O)Nc1ccc2oc(-c3ccncc3)nc2c1
-2.27
O=c1c(F)cn(C2CCCO2)c(=O)n1Cc1ccccc1Cl (configuration not stated)
-1.02
Cc1ccc2nc(NC(=O)C3CCN(S(=O)(=O)c4ccc5c(c4)oc(=O)n5C)CC3)sc2c1
4.26
Cc1ccccc1C(=O)Nc1cccc(-c2nnc(SCC(=O)O)n2C)c1
0.46
CN1CCN(c2nc3c(c(=O)[nH]c(=O)n3C)n2Cc2cccc3ccccc23)CC1
5.25
CCOC(=O)N1CCN(S(=O)(=O)c2cc3c(cc2C)NC(=O)CO3)CC1
1.1
O=C(CN1CCN(c2ncc(C(F)(F)F)cc2Cl)CC1)Nc1ccc2c(c1)OCO2
10.7
Cc1ccccc1C(OCC(O)CN1CCCCC1CCO)c1ccccc1 (configuration not stated)
2.98
Cc1cccc(N2C(=O)SC(N(CC(=O)O)c3cccc(C)c3)C2=O)c1 (configuration not stated)
8.43
CC(C)OC(=O)c1sc2nc3c(cc2c1N)C(=O)CCC3
1.67
CC(C)c1nc(-c2ccccn2)no1
-4.78
O=C(C1CCN(S(=O)(=O)c2cnc[nH]2)CC1)N1CCN(Cc2ccc3c(c2)OCO3)CC1
5.41
Cc1ccc2c(c1)N(CC(=O)N1CCCc3ccccc31)C(=O)C(C)O2 (configuration not stated)
3.31

----------
Listed here: items and their measured inhibition.
- experimental system: Cathepsin B (Homo sapiens) (UniProt P07858)
- measurement notes: human cathepsin B inhibitors, primary screen, biochemical, fluorogenic substrate (AID 453);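 note: 0% = enzyme with no compound and 100% = no enzyme blank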
- experimental parameters: purified cathepsin B, fluorescence, active compounds read high,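 tested at 10 µM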
About 75 (0.1%) of roughly 63,000 compounds were called active. This is one part of a sample in which actives are shown more often than they occur.
measurement name: inhibition (%)

CCCN1CCN(C(=O)Cn2ncc3ccccc32)CC1
0.47
CN(CCC#N)c1ncnc2scc(-c3ccccc3)c12
-3.88
CC(=O)Oc1cc2c(C(=O)NCCN3CCOCC3)c(C)oc2c2ccccc12
-1.15
CC(CCc1ccccc1)NC(=O)c1ccc(Br)o1 (centres undefined)
-4.56
Cc1ccsc1CNn1cnnc1SCc1ccccc1F
2.13
C=CCNc1nc(C)nc(OC)n1
3.19
COc1ccccc1NC(=O)CSc1nnc(Cc2cccn2C)n1-c1ccc(F)cc1
2.97
Cc1cc2cc(CN(Cc3cccs3)Cc3nnnn3CC3CCCO3)c(=O)[nH]c2cc1C (centres undefined)
4.13
CCOC(=O)N1CCC(Nc2c(NCCCN3CCN(c4ccc(OC)cc4)CC3)c(=O)c2=O)CC1
4.27
COC(=O)CCNc1ccc2c(c1)OCCO2
-7.3
O=C(COc1ccc(Cl)cc1)Nc1ccccc1CO
-0.12
CN1c2ccccc2-c2nc3ccccc3n2C1c1ccco1 (centres undefined)
-10.8
CC1=C2C(=O)OC(c3ccoc3)C2(C)CCC1 (centres undefined)
0.12
C=C(Br)CN1CCN(CC(=C)Br)CC1
8.43
O=C(C1=C(O)C(=O)N(Cc2ccccc2)C1c1cccnc1)c1ccco1 (centres undefined)
-2.37
O=C1N(Cc2ccc3c(c2)OCO3)c2ccccc2C1(O)c1c[nH]c2ccccc12 (centres undefined)
-2.6
CCCCOC(=O)c1[nH]c(C)c(C(=O)OC)c1C
4.33
Cc1cc(N=CC2=C(O)CCCC2=O)no1
-1.03
CCOC(=O)c1c(C)nc(-c2ccccc2)nc1NC(=O)C(C)C
-1.86
COc1ccccc1CNC(=O)CCCNS(=O)(=O)c1cccc2nsnc12
3.57
O=C(c1cccc(C(=O)N2CCc3ccccc32)n1)N1CCc2ccccc21
3.59
CCOc1ccc(NC(=O)CCC(=O)n2nc(C)cc2C)cc1
8.67
COc1ccc(C2CC(c3ccccc3)Nc3ncnn32)cc1 (centres undefined)
7.13
Cc1ccc(-n2c(Cc3cccs3)nnc2SCC(=O)OC(C)C)cc1
11.1

----------
- experimental system: Cathepsin B (Homo sapiens) (UniProt P07858)
- measurement notes: human cathepsin B inhibitors, primary screen, biochemical, fluorogenic substrate (AID 453);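 note: 0% = enzyme with no compound and 100% = no enzyme blank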
- experimental parameters: purified cathepsin B, fluorescence, active compounds read high,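 tested at 10 µM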
Among all 63,000 compounds or so, about 75 (0.1%) were called active. Shown is part of a subset that was picked to be rich in actives.
measurement name: inhibition (%)

CC(C)OC(=O)C(C#N)c1nc2ccccc2nc1N1CCN(Cc2ccc3c(c2)OCO3)CC1 (stereo not given)
0.39
COCc1cc(C)nc(Nc2cc(C)ccc2C)c1C#N
4.86
CCOC(=O)c1c(NC(=O)CSc2nnc(CN3CCOCC3)n2C)sc2c1CCCC2
-0.13
COc1cc(C2C(C(=O)c3sc(C)nc3C)=C(O)C(=O)N2CCN(C)C)cc(OC)c1OC (stereo not given)
4.44
O=S(=O)(NCCOc1cccc2cccnc12)c1ccc(F)cc1
-0.09
COc1ccc(CCNC(=O)C2CCCN(Cc3nc(-c4cccc(Cl)c4)oc3C)C2)cc1OC (stereo not given)
3.18
CC(=O)C1=C(O)C(=O)N(c2ccc(S(N)(=O)=O)cc2)C1c1ccccc1F (stereo not given)
-1.52
Cc1cccc(-c2noc(-c3ccc(F)cc3)n2)c1
3.17
CCCCNc1nc2c(c(=O)n(C)c(=O)n2C)n1Cc1cccc(OC)c1
0.69
Cc1ccc(NC(=O)CSc2nnc(-c3cnccn3)n2Cc2ccco2)cc1C
3.51

----------
- experimental system: Cathepsin B (Homo sapiens)
- measurement notes: human cathepsin B inhibitors, primary screen, biochemical, fluorogenic substrate (AID 453);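 note: 0% = enzyme with no compound and 100% = no enzyme blank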
- experimental parameters: purified cathepsin B, fluorescence, active compounds read high,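 tested at 10 µM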
Out of some 63,000 compounds screened, about 75 (0.1%) were called active. The sample as a whole holds a higher share of actives than the screen did.
Listed here: items and their measured inhibition.
measurement name: inhibition

Cc1cc(=O)oc(C)c1C(=O)NC1CC(C)(C)NC(C)(C)C1
5.11% (inactive)
CCOc1ccc2c(c1)cc(CN(C(=O)CC)C1CCCCC1)c1nnnn12
10.1% (inactive)
Cc1ccccc1Nc1nnc(C)c(=O)[nH]1
-0.9% (inactive)
CC1(C)CC(=O)C(C2=NC(C)(C)Cc3ccccc32)=C(O)C1
0.19% (inactive)
O=C(CN1CCOc2ccccc21)N1CCC(Cc2ccccc2)CC1
0.85% (inactive)
CCCCC(=O)Nc1ccc(C(=O)NCCCn2ccnc2)cc1
-0.94% (inactive)
c1ccc(CCC2=NCCn3cccc32)cc1
4.22% (inactive)
CC(C)OC(=O)c1cc(NC(=O)C2C3CCC(O3)C2C(=O)O)cc(C(=O)OC(C)C)c1 (stereo not drawn)
2.7% (inactive)
CCC(c1nnnn1C1CCCC1)N1CCN(C(=O)c2ccco2)CC1 (stereo not drawn)
4.25% (inactive)
CCCCN=C(N)/C(C(=O)OCC)=C(\O)c1ccc(OC)cc1
-2.85% (inactive)
CC1COC2C(O1)N(S(C)(=O)=O)CCN2S(C)(=O)=O (stereo not drawn)
3.14% (inactive)
C=C(C)CSc1nc(N)c2c3c(sc2n1)CCC3
-1.31% (inactive)
COc1ccc(C)c(Cn2c(-c3nonc3N)nc3ccccc32)c1
45.2% (active)
COc1cccc(-c2nnc(NC(=O)c3ccc(S(=O)(=O)N(CC(C)C)CC(C)C)cc3)o2)c1
3.9% (inactive)
Cc1ccccc1CSc1nnc(Cn2c(=O)sc3ccccc32)n1C
1.64% (inactive)
O=c1[nH]c(=O)n(Cc2ccco2)c2c1C(C(F)(F)F)(C(F)(F)F)N=C(c1ccco1)N2
3.15% (inactive)
Nc1nonc1-c1nc2ccccc2n1CCC(=O)O
7.32% (inactive)
OCc1nc(CO)n(Cc2ccccc2)n1
5.1% (inactive)
CCCCSc1nc2c(c(=O)n1CC)SC(C)C2 (stereo not drawn)
-3.44% (inactive)
Cc1nnc(N(Cc2ccco2)C(=O)c2ccno2)s1
-4.93% (inactive)
Cc1noc(/C=C/N(C)C)c1S(=O)(=O)N1CCCC(C(=O)NCc2ccco2)C1 (stereo not drawn)
4.93% (inactive)
Cn1c(=O)oc2cc(S(=O)(=O)N3CCC(C(=O)Nc4ccc(OC(F)(F)F)cc4)CC3)ccc21
1.08% (inactive)
CCn1c(CSc2nncn2-c2ccc(OC)cc2)nc2cc(S(=O)(=O)N(C)C)ccc21
5.16% (inactive)
